target-or-test-system: recombinant human FAK1 (Homo sapiens)
Construct: fused on or other part: N-terminal 6xHis tag
method-notes: FAK1 HTRF assay
pIC50: −log10 of the molar value.
measured-metric: pIC50

Q: Record request: pIC50 value, item `CC(=O)Nc1cccc(Nc2cc3c(cn2)c(C)nn3Cc2ccccc2OC(F)F)c1`
A: < 6.00

Q: Record request: pIC50 value, item `C[C@@H]1CN(c2ccc(Nc3ncc4ccn(Cc5ccccc5N(C)S(C)(=O)=O)c4n3)cc2)CCN1C`
A: > 7.70

Q: Record request: pIC50 value, item `COc1ccccc1S(=O)(=O)n1ccc2cnc(Nc3ccc(N4CCNCC4)cc3)nc21`
A: > 7.70

Q: Record request: pIC50 value, item `O=S(=O)(c1cccc2cccnc12)n1ncc2cnc(Nc3ccc(N4CCC(O)CC4)cc3)nc21`
A: > 7.70

Q: Record request: pIC50 value, item `CC(=O)Nc1cccc(Nc2cc3c(ccn3-c3ccccn3)cn2)c1`
A: < 6.00

Q: Record request: pIC50 value, item `CC(=O)Nc1ccc(S(=O)(=O)n2ccc3cnc(Nc4ccc(CC#N)cc4)nc32)cc1`
A: < 6.00

Q: Record request: pIC50 value, item `CN(C)S(=O)(=O)c1ccccc1Cn1ccc2cnc(Nc3ccc4c(c3)CCC(=O)N4)nc21`
A: > 7.70

Q: Record request: pIC50 value, item `C[C@@H](O)CN1CCN(c2ccc(Nc3ncc4ccn(Cc5ccccc5N(C)S(C)(=O)=O)c4n3)cc2)CC1`
A: > 7.70

Q: Record request: pIC50 value, item `CN(c1ccc(C#N)cc1Cn1ccc2cnc(Nc3ccc(N4CCNCC4)cc3)nc21)S(C)(=O)=O`
A: > 7.70

Q: Record request: pIC50 value, item `C[C@H]1CN(c2ccc(Nc3ncc4ccn(Cc5ccccc5NS(=O)(=O)CCCF)c4n3)c(F)c2)CCN1`
A: < 6.00

Q: Record request: pIC50 value, item `CN(c1ccccc1Cn1ccc2cnc(Nc3ccc4c(c3)CC(=O)N4)nc21)S(C)(=O)=O`
A: > 7.70

Q: Record request: pIC50 value, item `C[C@H]1CN(C(=O)c2ccc(Nc3ncc4ccn(Cc5cccnc5N(C)S(C)(=O)=O)c4n3)cc2)CCN1`
A: < 6.00

Q: Record request: pIC50 value, item `Cc1cnc(N(C)S(C)(=O)=O)c(Cn2ccc3cnc(Nc4ccc(N5CCC(N(C)C)CC5)c(C)c4)nc32)c1`
A: > 7.70

Q: Record request: pIC50 value, item `CN(c1ccccc1Cn1ccc2cnc(Nc3ccc(N4CCC(O)CC4)cc3)nc21)S(C)(=O)=O`
A: > 7.70

Q: Record request: pIC50 value, item `Cc1cc(Nc2ncc3cnn(S(=O)(=O)c4cccc5cccnc45)c3n2)ccc1N1CCC(O)CC1`
A: > 7.70

Q: Record request: pIC50 value, item `COC1CCN(c2ccc(Nc3ncc4ccn(S(=O)(=O)c5cccc6cccnc56)c4n3)cc2)CC1`
A: > 7.70

* * *

target-or-test-system: recombinant human FAK1 (Homo sapiens, UniProt Q05397)
Construct: fused on or other part: N-terminal 6xHis tag
Sequence (Q05397 422-680 limits assumed): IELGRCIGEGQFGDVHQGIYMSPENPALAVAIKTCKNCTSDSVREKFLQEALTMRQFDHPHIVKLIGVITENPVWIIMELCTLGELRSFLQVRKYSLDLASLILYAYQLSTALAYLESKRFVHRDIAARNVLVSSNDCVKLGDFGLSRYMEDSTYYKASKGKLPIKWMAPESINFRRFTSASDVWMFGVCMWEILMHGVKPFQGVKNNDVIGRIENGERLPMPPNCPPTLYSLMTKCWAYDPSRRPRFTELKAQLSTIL
method-notes: FAK1 HTRF assay
measured-metric: IC50

Q: Record request: IC50 value, item `C[C@H]1CN(c2ccc(Nc3ncc4ccn(Cc5ccccc5N(C)S(=O)(=O)CCCF)c4n3)c(F)c2)CCN1`
A: > 1000 nM

Q: Record request: IC50 value, item `COc1cc(N2CCNCC2)ccc1Nc1ncc2ccn(Cc3cccnc3N(C)S(C)(=O)=O)c2n1`
A: < 20 nM

Q: Record request: IC50 value, item `COc1ccc(N(C)S(C)(=O)=O)c(Cn2ccc3cnc(Nc4ccc(N5CCC(N(C)C)CC5)cc4)nc32)c1`
A: < 20 nM

Q: Record request: IC50 value, item `N#Cc1ccccc1S(=O)(=O)n1ccc2cnc(Nc3ccc4c(c3)CC(=O)N4)cc21`
A: < 20 nM
